Recorded values, source patent US20250066456A1.

# ASSAY_TARGET: BV2589 (recombinant CoV S glycoprotein, BQ.1.1) (SARS-CoV-2, UniProt P0DTC2 14-1273)
# PROCEDURE_DETAILS: hACE2 receptor inhibition ELISA on coated rS; competitor hACE2-His
EXPERIMENTAL_ENDPOINT: IC50

Note to self: IC50 recorded for 322.3 (antibody, V domains shown) VH: RVQLQQSGPELVKPGASVTISCKASGYIFTSDYIHWVKQRPGQGPEWIGWIYPGNINTKYNEKFKGKATLTADKSSSTAYMQLSSLTSEDSAVYFCARDDGNLYYYAMDYWGQGTSVTVSS VL: NIVLTQSPASLAVSLGQRATISCRASESVDSYGSSFMHWYQQKPGQPPKLLIYLASNLESGVPARFSGSGSRTDFTLTIDPVEADDAATYYCQQNNEDPRTFGGGTKLEIK was 0.265 µg/mL

Note to self: IC50 recorded for 239.12 (antibody, V domains shown) VH: EVKLEESGPVLVKPSQSLSLTCTVTGYSITSDYAWNWIRQFPGNKLEWMGYISNSAGTSYNPSLKSRISITRDTSKNQFFLQLNSVTTEDTATYYCASGGWSSYYAMDYWGQGTSVTVSS VL: DIQMTQSPASLSASVGETVTITCGASENIYGALNWYQRKQGKSPQLLIYGATNLADGMSSRFSGSGSGRQYSLKISSLHPDDVATYYCQNVLSTPYTFGGGTKLEIKR was > 3 µg/mL

Note to self: IC50 recorded for 425.6 (antibody, V domains shown) VH: VQLKQSGPSLVQPSQSLSITCTVSGFSLTSYGIHWVRQSPGKGLEWLGVIWRGGSTDYNAAFMSRLTITKDNSKSQVFFKMNSLQADDTAIYYCATHTEGDDVDYWGQGTSVTVSS VL: QIVLTQSPAIMSVSPGEKVTMTCSASSTMSFMYWYQQKPGSSPRLLIYDTSNLASGVPVRFSGSGSGTSYSLTISRVEAEDAATYYCQQWNTYPLTFGAGTKLELKR was > 3 µg/mL
